# System: Ileum
# Measurement Description: Antispasmodic activity in guinea pig ileum assessed as inhibition of acetylcholine-induced tissue contraction after 30 mins
# Format: functional, tissue-based
# Conditions Used: Cavia porcellus, 0.5 h
Parameter Measured: pIC50
Scale note: pIC50 = -log10(concentration in M).

Reference set (4 entries):
- Smiles Entry: "O=C1Cc2ccc(O)cc2/C=N/CCc2cc(O)ccc21"
  System Under Test: "Ileum"
  pIC50: 4.59
- Smiles Entry: "COc1ccc2c(c1)/C=N/CCc1cc(OC)ccc1C(=O)C2"
  System Under Test: "Ileum"
  pIC50: 4.70
- Smiles Entry: "COc1ccc2c(c1)/C=C\\N=C\\c1cc(O)ccc1CC2=O"
  System Under Test: "Ileum"
  pIC50: 4.07
- Smiles Entry: "COc1ccc2c(c1)/C=C\\N=C\\c1cc(OC)ccc1CC2=O"
  System Under Test: "Ileum"
  pIC50: 4.24

Attention now shifts to the item below.
Query string: May I ask what pIC50 has been recorded for `O=C1Cc2ccc(O)cc2/C=N/C=C\c2cc(O)ccc21` ?
Result string: 4.12

* * *

# Tested on: Ileum
# Measurement Description: Antispasmodic activity in guinea pig ileum assessed as inhibition of histamine-induced tissue contraction after 30 mins
# Type: functional, tissue-based
# Conditions Used: Cavia porcellus, 0.5 h
Parameter Measured: pIC50
Lab note — pIC50 values are minus log10 of concentrations in M.

Worked set:
- Smiles Entry: "COc1ccc2c(c1)/C=C\\N=C\\c1cc(O)ccc1CC2=O"
  pIC50: 4.23
- Smiles Entry: "O=C1Cc2ccc(O)cc2/C=N/CCc2cc(O)ccc21"
  pIC50: 4.59
- Smiles Entry: "O=C1Cc2ccc(O)cc2/C=N/C=C\\c2cc(O)ccc21"
  pIC50: 4.29

Query string: Enter reported pIC50 observed with Ileum for `COc1ccc2c(c1)/C=N/CCc1cc(OC)ccc1C(=O)C2`
Result string: 4.66

Query string: Request - read-out pIC50 | tested on Ileum | molecule `COc1ccc2c(c1)/C=C\N=C\c1cc(OC)ccc1CC2=O`
Result string: 4.17
